- System: NCI-H358 cells
- assay-notes: NCI-H358 CTG proliferation assay (120 h) (NSCLC, G12C)
- Format: cell-based, human
- conditions: Homo sapiens, assay 1, CTG, read-out: H358 (assay 1) IC50
quantity-kind: IC50 (nM)

Example entries begin here.
[[record]]
smiles_record = "C[C@H](Oc1cc(-n2ccc(C(=O)N3CCCC3)n2)nc(-c2noc3c2CCC[C@@]32CCCc3sc(N)c(C#N)c32)n1)[C@@H]1CCCN1C"
quantity_kind = "IC50"
units = "nM"
recorded_measurement = 17

[[record]]
smiles_record = "C[C@H](Oc1cc(N2C[C@H](C)NC3(CC3)C2)nc(-c2onc3c2CCC[C@@]32CCCc3sc(N)c(C#N)c32)n1)[C@@H]1CCCN1C"
quantity_kind = "IC50"
units = "nM"
recorded_measurement = 874

[[record]]
smiles_record = "C[C@H](Oc1cc(-c2ccn(C)n2)nc(-c2noc3c2CCC[C@@]32CCCc3sc(N)c(C#N)c32)n1)[C@@H]1C[C@@H](F)CN1C"
quantity_kind = "IC50"
units = "nM"
recorded_measurement = 112

[[record]]
smiles_record = "C[C@H](Oc1cc(N2CCNC3(CC3)C2)nc(-c2onc3c2CCC[C@@]32CCCc3sc(N)c(C#N)c32)n1)[C@@H]1CCCN1C"
quantity_kind = "IC50"
units = "nM"
recorded_measurement = 813

[[record]]
smiles_record = "C[C@H](Oc1cc(-c2cccc(C(N)=O)c2)nc(-c2noc3c2CCC[C@@]32CCCc3sc(N)c(C#N)c32)n1)[C@@H]1CCCN1C"
quantity_kind = "IC50"
units = "nM"
recorded_measurement = 74


I: C[C@H](Oc1cc(-n2ccc(-c3cnccn3)n2)nc(-c2noc3c2CCC[C@@]32CCCc3sc(N)c(C#N)c32)n1)[C@@H]1CCCN1C
II: C[C@H](Oc1cc(-n2ccc(C(N)=O)n2)nc(-c2noc3c2CCC[C@@]32CCCc3sc(N)c(C#N)c32)n1)[C@@H]1CCCN1C
Which gives the smaller IC50 number: I or II ? Write the label of whichever entry you select. II
(II: 10 nM, I: 25 nM)

----------
- target: KRAS (G12C)::SOS1 (Homo sapiens (Human), UniProt P01116, C118S/C51S/C80L/G12C)
- Sequence (P01116 other isoform, or with tags, fused parts or gaps G12C/C51S/C80L/C118S): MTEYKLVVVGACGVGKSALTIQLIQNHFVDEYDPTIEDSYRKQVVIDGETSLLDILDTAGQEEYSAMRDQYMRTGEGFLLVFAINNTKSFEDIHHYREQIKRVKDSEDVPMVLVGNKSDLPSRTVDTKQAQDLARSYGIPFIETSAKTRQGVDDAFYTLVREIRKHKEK
- assay-notes: KRAS::SOS1 AlphaScreen binding assay, KRAS G12C
quantity-kind: IC50 (nM)

[[record]]
smiles_record = "C[C@H](Oc1cc(-c2cn(C)nn2)nc(-c2onc3c2CCC[C@@]32CCCc3sc(N)c(C#N)c32)n1)[C@@H]1CCCN1C"
quantity_kind = "IC50"
recorded_measurement = 2

[[record]]
smiles_record = "C[C@H](Oc1cc(N2CCNC[C@]23CCOC3)nc(-c2onc3c2CCC[C@@]32CCCc3sc(N)c(C#N)c32)n1)[C@@H]1CCCN1C"
quantity_kind = "IC50"
recorded_measurement = 2

[[record]]
smiles_record = "C[C@H](Oc1cc(Cl)nc(-c2onc3c2CCC[C@@]32CCCc3sc(N)c(C#N)c32)n1)[C@@H]1CCCN1C"
quantity_kind = "IC50"
recorded_measurement = 2

[[record]]
smiles_record = "C[C@H](Oc1cc(N2CCNC3(CC3)C2)nc(-c2noc3c2CCC[C@@]32CCCc3sc(N)c(C#N)c32)n1)[C@@H]1C[C@@H](F)CN1C"
quantity_kind = "IC50"
recorded_measurement = 3

[[record]]
smiles_record = "C[C@H](Oc1cc(-n2cncc3ccnc2-3)nc(-c2onc3c2CCC[C@@]32CCCc3sc(N)c(C#N)c32)n1)[C@@H]1CCCN1C"
quantity_kind = "IC50"
recorded_measurement = 2

[[record]]
smiles_record = "C[C@H](Oc1cc(N2CC[C@H](N(C)C)C2)nc(-c2noc3c2CCC[C@@]32CCCc3sc(N)c(C#N)c32)n1)[C@@H]1CCCN1C"
quantity_kind = "IC50"
recorded_measurement = 9


A: C[C@H](Oc1cc(N2CCNC3(CCC3)C2)nc(-c2onc3c2CCC[C@@]32CCCc3sc(N)c(C#N)c32)n1)[C@@H]1CCCN1C
B: C[C@H](Oc1cc(N2CCc3cccnc32)nc(-c2noc3c2CCC[C@@]32CCCc3sc(N)c(C#N)c32)n1)[C@@H]1CCCN1C
C: CO[C@@H]1C[C@@H]([C@H](C)Oc2cc(-c3ccn(C)n3)nc(-c3noc4c3CCC[C@@]43CCCc4sc(N)c(C#N)c43)n2)N(C)C1
Highest IC50 first, then in falling order down to the smallest. Give the labels in the order specified. B, A, C

I: CO[C@H]1CCN(C)[C@@H]1[C@H](C)Oc1cc(N2CCNC3(CC3)C2)nc(-c2onc3c2CCC[C@@]32CCCc3sc(N)c(C#N)c32)n1
II: Cc1nccn1-c1cc(O[C@@H](C)[C@@H]2CCCN2C)nc(-c2noc3c2CCC[C@@]32CCCc3sc(N)c(C#N)c32)n1
// compare measured IC50 between I and II ; output the lower one Response format: the label of the selected entry. II
(II: 2 nM, I: 3 nM)

1: Cc1cc(-c2onc3c2CCC[C@@]32CCCc3sc(N)c(C#N)c32)nc(N2CCCNC[C@@H]2C)n1
2: C[C@H](Oc1cc(N2CCOC3(CC3)C2)nc(-c2noc3c2CCC[C@@]32CCCc3sc(N)c(C#N)c32)n1)[C@@H]1CCCN1C
3: C[C@H](Oc1cc([C@@H]2CCN(C)C2)nc(-c2noc3c2CCC[C@@]32CCCc3sc(N)c(C#N)c32)n1)[C@@H]1CCCN1C
4: C[C@H](Oc1cc(N2C[C@@H](N(C)C)[C@@H](O)C2)nc(-c2noc3c2CCC[C@@]32CCCc3sc(N)c(C#N)c32)n1)[C@@H]1CCCN1C
Please list these in order of increasing IC50. Thank you! I'd appreciate it if you listed the labels in the requested order. 2, 3, 4, 1
(2: 2 nM, 3: 3 nM, 4: 7 nM, 1: 32 nM)

A: C[C@H](Oc1cc(-c2ccn(Cc3ncco3)n2)nc(-c2noc3c2CCC[C@@]32CCCc3sc(N)c(C#N)c32)n1)[C@@H]1CCCN1C
B: C[C@H](Oc1cc(N2C[C@H](C)NC3(CC3)C2)nc(-c2onc3c2CCC[C@@]32CCCc3sc(N)c(C#N)c32)n1)[C@@H]1CCCN1C
C: [2H]C([2H])([2H])N1C[C@H](F)C[C@H]1[C@H](C)Oc1cc(N2CCNC3(CC3)C2)nc(-c2noc3c2CCC[C@@]32CCCc3sc(N)c(C#N)c32)n1
Sort the molecules on IC50; start with the lowest figure. Dear reader, please state the labels in the requested order. C, A, B

----------
- assay-notes: Solubility measurement (DMSO solution method), McIlvaine buffer pH 4.5 or 6.8
- Assay type: physicochemical
- conditions: aqueous buffer, kinetic from dmso stock; McIlvaine buffer pH 6.8; DMSO stock diluted to 250 μM; 24 h shaking at ambient temperature; read-out: solubility pH 6.8
quantity-kind: solubility at 24 h (µg/mL)

a: C[C@H](Oc1cc(N2CC[C@H](N3CCCC3)C2)nc(-c2noc3c2CCC[C@@]32CCCc3sc(N)c(C#N)c32)n1)[C@@H]1CCCN1C
b: CO[C@H]1CCN(C)[C@@H]1[C@H](C)Oc1cc(N2CCN(C)C3(CC3)C2)nc(-c2noc3c2CCC[C@@]32CCCc3sc(N)c(C#N)c32)n1
When their solubility at 24 h values are compared, which is larger, a or b ? Give the label of your selection. a

----------
- assay-notes: Plasma protein binding assay (PPB), equilibrium dialysis, 10% FCS in PBS
- Type: in vitro ADME
- conditions: bovine, read-out: PPB 10% FCS (% fu)
quantity-kind: fraction unbound

[[record]]
compound = "C[C@H](Oc1cc(-n2ccc(C(=O)N(C)C3COC3)n2)nc(-c2noc3c2CCC[C@@]32CCCc3sc(N)c(C#N)c32)n1)[C@@H]1CCCN1C [II-194]"
recorded_measurement = 0.08


P: C[C@H](Oc1cc([C@@H]2CCOC2)nc(-c2onc3c2CCC[C@@]32CCCc3sc(N)c(C#N)c32)n1)[C@@H]1CCCN1C [I-22]
Q: Cc1nc(-c2cc(O[C@@H](C)[C@@H]3CCCN3C)nc(-c3noc4c3CCC[C@@]43CCCc4sc(N)c(C#N)c43)n2)cs1 [II-103]
R: C[C@H](Oc1nc(-c2noc3c2CCC[C@@]32CCCc3sc(N)c(C#N)c32)nc(N2CCNC3(CC3)C2)c1F)[C@@H]1C[C@@H](F)CN1C [II-155]
S: C[C@H](Oc1cc(N2CCOC2=O)nc(-c2noc3c2CCC[C@@]32CCCc3sc(N)c(C#N)c32)n1)[C@@H]1CCCN1C [II-143]
Kindly order the items shown according to fraction unbound, from the highest value down. // ordering of labels required in reply P, S, Q, R

P: C[C@H](Oc1cc(-n2ccsc2=O)nc(-c2noc3c2CCC[C@@]32CCCc3sc(N)c(C#N)c32)n1)[C@@H]1CCCN1C [II-135]
Q: C[C@H](Oc1cc(N2CCN(C)C3(COC3)C2)nc(-c2noc3c2CCC[C@@]32CCCc3sc(N)c(C#N)c32)n1)[C@@H]1CCCN1C [II-13]
R: C[C@H](Oc1cc(-c2ccn(C3CC3)n2)nc(-c2noc3c2CCC[C@@]32CCCc3sc(N)c(C#N)c32)n1)[C@@H]1CCCN1C [II-98]
S: C[C@H](Oc1cc(C2COCCO2)nc(-c2noc3c2CCC[C@@]32CCCc3sc(N)c(C#N)c32)n1)[C@@H]1CCCN1C (stereo partly shown) [II-95]
In this exercise, place the 4 compounds in ascending sequence of their recorded fraction unbound. As an answer, provide the labels arranged in the order called for. R, P, Q, S
(R: 0.01, P: 0.06, Q: 0.24, S: 0.53)

P: CO[C@@H]1C[C@@H]([C@H](C)Oc2cc(-c3ccn(C)n3)nc(-c3noc4c3CCC[C@@]43CCCc4sc(N)c(C#N)c43)n2)N(C)C1 [II-91]
Q: C[C@H](Oc1cc(-c2ccn(C[C@@H](C)O)n2)nc(-c2noc3c2CCC[C@@]32CCCc3sc(N)c(C#N)c32)n1)[C@@H]1CCCN1C [II-117]
Which entry shows the lesser value of fraction unbound here, P or Q ? Give the label of your selection. P
(P: 0.08, Q: 0.19)

A: C[C@H](Oc1cc(N2CCCC3(COC3)C2)nc(-c2noc3c2CCC[C@@]32CCCc3sc(N)c(C#N)c32)n1)[C@@H]1CCCN1C [II-72]
B: C[C@H](Oc1cc(N2CCN(C)C3(CC3)C2)nc(-c2noc3c2CCC[C@@]32CCCc3sc(N)c(C#N)c32)n1)[C@@H]1CCCN1C [II-171]
Between A and B , which one shows the smaller fraction unbound number? # reply format: chosen label A
(A: 0.1, B: 0.23)
